Tested on: MOLT-4 leukemia
Assay Protocol: NCI tumour cell line growth inhibition, 48 h
Measured Endpoint: TGI (µM)
Write it as a number; the unit µM goes unstated.

// worked examples, TGI included
1) Cc1c2cccc-2c(N(C)C)cc2c1[nH]c1ccccc12	16.9
2) CNCc1ccc(C)c(NC(=O)c2ccc(Nc3nc(-c4ccccc4)c4ccccc4n3)cc2)c1	4.76

## Task Reported TGI for MOLT-4 leukemia, given `COc1ccc(/C=C(\NC(=O)c2ccccc2)c2nc3ccccc3[nH]2)cc1` ?
## Result 83.1

## Task Hi! What's the reported TGI for CCOC(=O)C(Cc1ccc(N(CCCl)CCCl)cc1)NC(=O)C(CC(C)C)NC(C)=O (stereo not given) on MOLT-4 leukemia?
## Result 2.4

## Task Form field: TGI recorded for COc1ccc2c(c1)CCC1C2CCC2(C)C1CC[C@@]2(O)CNC(=O)/C=C/c1ccc(O)c(O)c1 (stereo not given in full) with MOLT-4 leukemia (enter value)
## Result 2.28

## Task Lab request: please report TGI under test system MOLT-4 leukemia for COc1ccc(/C=C2\CC(C)CC3C2=NN(C(C)=O)C3c2ccc(OC)c(OC)c2)cc1OC (stereo not given)
## Result 43.6

## Task Lab request: please report TGI under test system MOLT-4 leukemia for `O=C1N[C@@H](c2c[nH]c3ccc(Br)cc23)C(=O)N[C@H]1c1c[nH]c2ccc(Br)cc12`
## Result 20.1

## Task Query for MOLT-4 leukemia: what TGI does the record show for CCN(CC)CCC(CNc1c2ccc(Cl)cc2nc2ccc(OC)cc12)c1ccccc1 (stereo not given) ?
## Result 5

## Task Notebook entry, MOLT-4 leukemia assay: TGI of `COc1cc(NS(C)(=O)=O)ccc1N1Cc2cnc3ccc4[nH]ccc1c4c23` = ?
## Result 62.5

## Task Give MOLT-4 leukemia TGI for `COc1cc(C2C(C(=O)Nc3ccc(Cl)c(Cl)c3)=C(C)NC(C)=C2C(=O)Nc2ccc(Cl)c(Cl)c2)ccc1O`
## Result 26.9

Values were extracted from PubChem BioAssay (NCI).
